System: RPMI-8226 leukemia
experimental.protocol: NCI-60 one-dose screen, 48 h (100 = growth as untreated, 0 = no growth, -100 = all killed)
condition.details: 10 µM unless noted
This is part of a sample that, as a whole, favours compounds with a hit. Of some 83,000 tested, about 20% had one in any assay.
Classify by measured growth: label 1 if it is equal to or exceeds 30%, label 0 if it is smaller.

O=C1NC(=S)N[C@H]1CC(=O)n1cnc2ccccc21 = label 1
O=C1/C(=C/c2ccc(Cl)cc2)SC(=S)N1CCc1ccc(O)cc1 = label 1
CNC(=O)c1cc(Oc2ccc(NC(=O)Nc3ccc(Cl)c(SC)c3)c(F)c2)ccn1 = label 0
N#Cc1c(N)n(CCNC(=O)c2ccccc2)c2nc3ccccc3nc12 = label 1
COc1cc(/C=C/C(=O)c2c(C)oc3nc[nH]c(=O)c23)cc(OC)c1OC = label 1
CSc1nc(Nc2cccc(NC(=O)/C(C#N)=C/c3c(Cl)cccc3Cl)c2)c(C#N)c(-c2cccc([N+](=O)[O-])c2)n1 = label 0
CN(C)CCCNc1c2ccccc2nc2ccccc12 = label 1
CSc1nc2c(c(=O)[nH]1)C1(C(=O)Nc3ccccc31)c1c(nc(SC)[nH]c1=O)N2 = label 1
O=C1c2cc3c(cc2-c2c1c1cc(F)c(F)cc1c(=O)n2CCCn1ccnc1)OCO3 = label 0
C#CC(F)(F)[C@]1(O)CC[C@H]2[C@@H]3CCC4=CC(=O)CCC4=C3[C@@H](c3ccc(C4CC4)cc3)C[C@@]21C = label 0
CC(=O)Oc1ccc(Cl)cc1CN(C(C)=O)C1CCCCC1 = label 1
NC(=O)c1cc(I)ccc1NC(=O)/C=C/c1ccccc1Cl = label 0
Cc1[nH]c(-c2ccc3cc[nH]c3c2)c2c1C(=O)CCCC2 = label 0
OCC(O)c1nc2ccc3[nH]ncc3c2c2c1CCCC2 (stereo not given) = label 0
CC1CCNC(C)C1 (stereo not given) = label 1
